target: PD-L1 (antigen of the kinetic measurements) (human, UniProt Q9NZQ7); assay: kinetic measurements for aPDL1 antibodies; instrument and antigen format not stated
Sequence (Q9NZQ7 19-238 limits assumed): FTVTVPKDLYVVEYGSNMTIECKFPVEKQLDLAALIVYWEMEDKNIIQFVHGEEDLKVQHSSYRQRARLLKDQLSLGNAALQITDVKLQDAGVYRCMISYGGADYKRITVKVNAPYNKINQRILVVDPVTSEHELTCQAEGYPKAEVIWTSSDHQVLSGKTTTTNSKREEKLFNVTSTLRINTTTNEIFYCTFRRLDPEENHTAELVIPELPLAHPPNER
Item-by-item account of pKd
In plain terms, pKd is the concentration in mol/L turned into minus its base-10 logarithm.

Solved cases (4 shown):
[
  {
    "binder": "1C4 (antibody, V domains shown, anti-PD-L1 clone; also called Ab 1C4) VH: QVQLVQSGAEVKKPGSSVKVSCKASGGTFSRYALTWVRQAPGQGLEWMGGIIPIFGRANYAQKFQGRVTITADKSTSTAYMELGSLTSDDTAVYYCAEEGAFNSLAIWGQGTMVTVSS VL: NFMLTQPHSVSESPGKTVTISCTRSSGSIASNYVQWYQQRPGSAPTTVIFADNQRPSGVPARFSGSIDSSSNSASLTISGLKTEDEADYYCQSYDSSNHWVFGGGTQLTVL",
    "reported_property": "pKd",
    "endpoint_value": 8.94
  },
  {
    "binder": "1D2 (antibody, V domains shown, anti-PD-L1 clone; also called Ab 1D2) VH: QVQLVQSGAEVKKPGSSVKVSCKASGGTFSSYAISWVRQAPGQGLEWMGGIIPIFGTANYAQKFQGRVTITADESTSTAYMELSSLRSEDTAVYYCARDGSGYDSAGMDDWGQGTLVTVSS VL: QPGLTQPPSASGTPGQTVTISCSGSRSNIGSNYVYWYQQFPGTAPKLLIFSNNQRPSGVPDRFSGSKSGTSASLAISGLRSEDEADYYCAVWDDSLSGVVFGGGTKLTVL",
    "reported_property": "pKd",
    "endpoint_value": 9.00
  },
  {
    "binder": "1D1 (antibody, V domains shown, anti-PD-L1 clone; also called Ab 1D1) VH: QVQLVQSGAEVKKPGASVKVSCKASGYTFTSYGISWVRQAPGQGLEWMGWISAYNGHASNAQKVEDRVTMTTDTSTNTAYMELRNLTTDDTAVYYCARVHAALYYGMDVWGQGTTVTVSS VL: SYELTQPPSVSVAPGQTARITCGGDNIGSKGVHWYQQTPGQAPVLVVYDDSDRPSGIPERFSGSKSGNTATLTISRVEAGDEADYYCQVWDSRSDHWVFGGGTRVTVL",
    "reported_property": "pKd",
    "endpoint_value": 9.22
  },
  {
    "binder": "1C6 (antibody, V domains shown, anti-PD-L1 clone; also called Ab 1C6) VH: QVQLVQSGGEVKKPGASVKVSCKASGYTLSSHGITWVRQAPGQGLEWMGWISAHNGHASNAQKVEDRVTMTTDTSTNTAYMELRSLTPDDTAVYYCARVHAALYYGMDVWGQGTLVTVSS VL: LPVLTQPPSVSVAPGQTARITCGGNNIGSKSVHWYQQKPGQAPVLVVYDDSDRPSGIPERFSGSNSGNTATLTINRVEAGDEADYYCQVWDSSSDHWVFGGGTKLTVL",
    "reported_property": "pKd",
    "endpoint_value": 7.38
  }
]

Pending binder:
Q. Give its pKd value. Item: 1D4 (antibody, V domains shown, anti-PD-L1 clone; also called Ab 1D4) VH: QVQLVQSGGGVVQPGRSLRLSCAASGFTFSSYAIHWVRQAPGKGLEWITTISYDGSNKYYADSVKGRFTISRDNPKNTLYLQMNSLRAEDTAVYYCARGFGGPDYWGQGTLVTVSS VL: LPVLTQPSSLSASPGASASLTCTLRSGINVGTYRIYWYQQKPGSPPQYLLRYKSDSDKQQGSGVPSRFSGSKDASANAGILLISGLQSEDEADYYCMIWHSSAYVFGTGTKVTVL
A. 8.99
